Target: human recombinant PDE5 (Homo sapiens, UniProt O76074)
Construct: host or cells: Saccharomyces cerevisiae strain BJ2-54 (ATCC 74465)
Assay: cGMP-PDE inhibition, one-step assay with human recombinant PDE5
Format: biochemical
Conditions: 0.15 μM 8-[H3]-cGMP, 30 min
Method: The compounds of structural formula (I) were tested for an ability to inhibit PDE5. The ability of a compound to inhibit PDE5 activity is related to the IC50 value for the compound, i.e., the concentration of inhibitor required for 50% inhibition of enzyme activity. The IC50 value for compounds pounds of structural formula (I) were determined using recombinant human PDE5. […] cGMP-PDE activity of compounds of the present invention was measured using a one-step assay adapted from Wells et al., Biochim. […]
test_readout: IC50 (nM)

{"molecule": "O=C(c1cc2ccccc2s1)N1CCc2c([nH]c3ccccc23)C1c1cccc(Cl)c1 (stereo not drawn)", "IC50 [nM]": 835}
{"molecule": "Cc1ncn(-c2nccc(N3CCc4c([nH]c5ccccc45)C3c3ccc4c(c3)CCO4)n2)c1C (stereo not drawn)", "IC50 [nM]": 30}
{"molecule": "Cc1cn(-c2ccnc(N3CCc4c([nH]c5ccccc45)C3c3ccc4c(c3)CCO4)n2)cn1 (stereo not drawn)", "IC50 [nM]": 40}
{"molecule": "COc1cc2nc(N3CCc4c([nH]c5ccccc45)C3c3ccc4c(c3)OCO4)nc(Cl)c2cc1OC (stereo not drawn) [Example 47a]", "IC50 [nM]": 27}

[1] O=C(c1cc2cccc(Br)c2s1)N1CCc2c([nH]c3ccccc23)C1c1ccc2c(c1)OCO2 (stereo not drawn)
[2] Clc1nc(N2CCc3c([nH]c4ccccc34)C2c2ccc3c(c2)OCO3)c2nc[nH]c2n1 (stereo not drawn)
Between the entries labelled 1 and 2 , which has a larger IC50 value on record? Label of pick, please.
1
